Data origin: ChEMBL document CHEMBL1201862

For each of the compounds below, state its GI50.
- Tested on: U-251
- assay info: NCI tumour cell line growth inhibition, 48 h
Activity calls are given as the source filed them. Rule as the data show it: active = GI50 up to about 1.1 µM and inactive = higher.

Recorded GI50 (compound CCN(CC)Cc1nc(C2CCC([N+](=O)[O-])O2)no1 (stereo unspecified) ): 28.5 µM (inactive)

Recorded GI50 (compound "CN1CCN([C@H]2C[C@H]3[C@@H]4CC=C5C[C@@H](N6CCCC6)CC[C@]5(C)[C@H]4CC[C@]3(C)[C@H]2O)CC1" ): 59.2 µM (inactive)

Recorded GI50 (compound "N#C/C(=C/c1ccc([N+](=O)[O-])o1)c1ccccc1" ): > 100 µM (inactive)

Recorded GI50 (compound "C(/Cc1ccc2c(c1)OCO2)=N\N=C1NCCCCN1" ): 86.3 µM (inactive)

Recorded GI50 (compound C/C=C1/CC(C(=O)OC)N(C(=O)OCc2ccccc2)C1=S (stereo unspecified) ): > 100 µM (inactive)

Recorded GI50 (compound CC(=O)CC1CCC(=O)/C=C/C(=O)OC(CC(C)=O)CCC(=O)/C=C/C(=O)O1 (stereo unspecified) ): 21.4 µM (inactive)

Recorded GI50 (compound "Oc1ccc(NCc2cc(O)ccc2O)cc1" ): 15.7 µM (inactive)

Recorded GI50 (compound "Cc1nnc(N)nc1/C=C/c1c(O)ccc2ccccc12" ): 38.7 µM (inactive)

Recorded GI50 (compound COC(=O)C1=C(O)c2cc(OC)c(OC)cc2C(c2ccc(OC)c(OC)c2)C1 (stereo unspecified) ): > 100 µM (inactive)

Recorded GI50 (compound O=C1N(c2ccccc2)C2(c3ccccc3)CC3CCCC13S2 (stereo unspecified) ): 49.5 µM (inactive)

Recorded GI50 (compound "O=C(CSCC(=O)N/N=C/c1ccc2c(c1)OCO2)N/N=C/c1ccc2c(c1)OCO2" ): > 100 µM (inactive)

Recorded GI50 (compound CNC(=O)OCC1=C(COC(=O)NC)C(C)N(c2ccccc2)C1 (stereo unspecified) ): 31.8 µM (inactive)

Recorded GI50 (compound OC1(c2ccccc2)c2ccccc2N=C2NCCN21 (stereo unspecified) ): 91.8 µM (inactive)

Recorded GI50 (compound C[C@]12CC/C(=N\OC(=O)Nc3ccccc3)C=C1CC[C@@H]1C2CC[C@@]2(C)C1CC[C@@H]2OC(=O)Nc1ccccc1 (stereo partly specified) ): > 100 µM (inactive)

Recorded GI50 (compound CCO/C=C\C12CCCC1NC(c1ccccc1)(c1ccccc1)O2 (stereo unspecified) ): 33.3 µM (inactive)

Recorded GI50 (compound "N#C[C@@]12CCCC(=O)[C@@H]1[C@H]1CCC[C@H]12" ): 17.2 µM (inactive)
